experiment: in vivo; conditions: both, Hartley, guinea pig, perilymph, other: intratympanic, 5 μL
Measurement Type: concentration at 3 days (ng/mL)
The figure you give is taken to be in ng/mL; do not add the unit.

Give the reported value of concentration at 3 days for this record: C[C@@H]1C[C@H]2[C@@H]3CCC4=CC(=O)C=C[C@]4(C)[C@@]3(F)[C@@H](O)C[C@]2(C)[C@@]1(O)C(=O)CO
109

###

test: in vivo; conditions: both, Hartley, guinea pig, perilymph, other: intratympanic, 5 μL
Measurement Type: concentration at 1 week
State the value with its unit after it.

// fetch concentration at 1 week given entry C[C@@H]1C[C@H]2[C@@H]3CCC4=CC(=O)C=C[C@]4(C)[C@@]3(F)[C@@H](O)C[C@]2(C)[C@@]1(O)C(=O)CO
1700 ng/mL

Cited source: patent US20260152636A1
